# TEST NAME: Toxicity liver stage against HepG2, at 10uM
# Assay type: cell-based
# Parameters: test concentration 10 uM, cell line HepG2-A16-CD81EGFP
# CONDITION LABEL: human, HepG2-A16-CD81EGFP cells; read-out: INHIBITION
Items are presented alongside their recorded cytotoxicity at 10 µM.

- COMPOUND: "CCc1nc(C2CCCN(C(=O)c3ccccc3Cl)C2)no1 (stereo not drawn)"
  ENDPOINT UNIT: "%"
  cytotoxicity at 10 µM: -5.43
- COMPOUND: "COc1cc(F)cc(NC(=O)NCc2cccc(N(C)C)n2)c1"
  ENDPOINT UNIT: "%"
  cytotoxicity at 10 µM: 25
- COMPOUND: "O=C(C[C@@H]1COC[C@H]2CN(Cc3ccc(F)cc3)C[C@@H]12)N1CCOCC1"
  ENDPOINT UNIT: "%"
  cytotoxicity at 10 µM: 7.75
- COMPOUND: "O=C(c1cccs1)N1CC(Oc2ccccc2Cl)C1"
  ENDPOINT UNIT: "%"
  cytotoxicity at 10 µM: 6.89
- COMPOUND: "CN(CCc1ccccc1)Cc1cc(C(=O)N2CCN(C)C(=O)C2)no1"
  ENDPOINT UNIT: "%"
  cytotoxicity at 10 µM: -11.6
- COMPOUND: "CC(=O)Nc1cc(F)c(S(=O)(=O)N(C)CC2CCC2)c(F)c1"
  ENDPOINT UNIT: "%"
  cytotoxicity at 10 µM: -54.4
- COMPOUND: "O=C(c1cccnc1)N1C[C@H]2CC[C@@H](C1)N(Cc1cc(F)ccc1F)C2"
  ENDPOINT UNIT: "%"
  cytotoxicity at 10 µM: -10.2
- COMPOUND: "CCN1CCOCC12CCN(c1ccc(C#N)cc1)CC2"
  ENDPOINT UNIT: "%"
  cytotoxicity at 10 µM: -6.93
- COMPOUND: "CCSc1cc(C(=O)NCC(C)(C)N(C)C)ccn1"
  ENDPOINT UNIT: "%"
  cytotoxicity at 10 µM: -13.4
- COMPOUND: "COc1cc(CN(C)C(=O)NC2CC2)ccc1SC"
  ENDPOINT UNIT: "%"
  cytotoxicity at 10 µM: -8.01
- COMPOUND: "Cc1nnc(CN(C)CC(=O)NC(C)(C)c2ccc(F)cc2)n1C"
  ENDPOINT UNIT: "%"
  cytotoxicity at 10 µM: -4.25
- COMPOUND: "Cc1nc(CN2CCCC(NCc3ccc4c(c3)CCO4)C2)no1 (stereo not drawn)"
  ENDPOINT UNIT: "%"
  cytotoxicity at 10 µM: -3.61
- COMPOUND: "Cc1cc(N(C)C)nc(NC2CCc3nc(C)nn3C2)n1 (stereo not drawn)"
  ENDPOINT UNIT: "%"
  cytotoxicity at 10 µM: 5.56
- COMPOUND: "O=C1CC(N(C(=O)COc2ccc(F)cc2F)C2CC2)C(=O)N1 (stereo not drawn)"
  ENDPOINT UNIT: "%"
  cytotoxicity at 10 µM: -3.59
- COMPOUND: "O=C(CCc1ccccc1)NCC1CCN(Cc2ccsc2)CC1"
  ENDPOINT UNIT: "%"
  cytotoxicity at 10 µM: 5.27
- COMPOUND: "Cc1ccc(NC2CCN(C(=O)c3ccc4c(c3)CCC4)CC2)nn1"
  ENDPOINT UNIT: "%"
  cytotoxicity at 10 µM: -8.19
- COMPOUND: "CNC(=O)[C@@H](c1ccccc1OC)N1CCC[C@H]1C(=O)NC(C)(C)C"
  ENDPOINT UNIT: "%"
  cytotoxicity at 10 µM: -6.67
- COMPOUND: "CCOC(C)c1noc(CN2CCCN(c3ccccn3)CC2)n1 (stereo not drawn)"
  ENDPOINT UNIT: "%"
  cytotoxicity at 10 µM: -4.05
- COMPOUND: "FC(F)(F)Cn1ccnc1CN1CCCC1c1noc(C2CC2)n1 (stereo not drawn)"
  ENDPOINT UNIT: "%"
  cytotoxicity at 10 µM: 1.78
- COMPOUND: "CN(C(=O)Nc1cccc(C#N)c1)C1CCN(c2ccccn2)CC1"
  ENDPOINT UNIT: "%"
  cytotoxicity at 10 µM: 1.66
- COMPOUND: "Cc1ccc(N2CCN(C(=O)CCc3ccc(O)cc3)CC2=O)cc1"
  ENDPOINT UNIT: "%"
  cytotoxicity at 10 µM: -2.36
- COMPOUND: "Cc1ncsc1CN1C[C@@H]2COC[C@]2(C(=O)NCc2ccccn2)C1"
  ENDPOINT UNIT: "%"
  cytotoxicity at 10 µM: -108
- COMPOUND: "COc1ncccc1CNCc1c(C(C)C)nn(C)c1N(C)C"
  ENDPOINT UNIT: "%"
  cytotoxicity at 10 µM: -5.91

---

Items are presented alongside their recorded cytotoxicity at 10 µM.
# TEST NAME: Toxicity liver stage against HepG2, at 10uM
# Assay type: cell-based
# Set-up: test concentration 10 uM, cell line HepG2-A16-CD81EGFP
# CONDITION LABEL: human, HepG2-A16-CD81EGFP cells; read-out: INHIBITION
READOUT LABEL: cytotoxicity at 10 µM (%)

- COMPOUND: "Cc1cccc(CN2C[C@@H](F)[C@@H](OCc3nc4ccccc4[nH]3)C2)n1"
  READOUT LABEL: "cytotoxicity at 10 µM"
  NUMBER: 8.01
- COMPOUND: "COc1cccc2cc(CNCc3ccnc(N4CCCCC4)c3)oc12"
  READOUT LABEL: "cytotoxicity at 10 µM"
  NUMBER: -0.381
- COMPOUND: "CS(=O)(=O)CCC(=O)NC(c1ccc(F)cc1)C(F)(F)F (stereo unspecified)"
  READOUT LABEL: "cytotoxicity at 10 µM"
  NUMBER: -4.44
- COMPOUND: "COc1cccc(N2CCN(CC(O)c3cc(C)sc3C)CC2)c1 (stereo unspecified)"
  READOUT LABEL: "cytotoxicity at 10 µM"
  NUMBER: 2.24
- COMPOUND: "COCCCN1CC2(CCCN(CCn3cc(Cl)cn3)C2)CCC1=O (stereo unspecified)"
  READOUT LABEL: "cytotoxicity at 10 µM"
  NUMBER: 5.97
- COMPOUND: "O=C(O)[C@]12CCCN(Cc3ccoc3)C[C@H]1CN(c1ncccn1)C2"
  READOUT LABEL: "cytotoxicity at 10 µM"
  NUMBER: 7.37

---

Items are presented alongside their recorded cytotoxicity at 10 µM.
# TEST NAME: Toxicity liver stage against HepG2, at 10uM
# Type: cell-based
# Parameters: test concentration 10 uM, cell line HepG2-A16-CD81EGFP
# CONDITION LABEL: human, HepG2-A16-CD81EGFP cells; read-out: INHIBITION
READOUT LABEL: cytotoxicity at 10 µM

- MOLECULE: "Cc1nn2cc(CCNC(=O)c3cc(C(C)C)nn3C)nc2s1"
  RESULT: "34.9%"
- MOLECULE: "N#Cc1c(Cl)nsc1NCc1cccnc1OC1CCCC1"
  RESULT: "27.1%"
- MOLECULE: "O=C(c1cccnc1)N1CC[C@H](OCC2CC2)[C@@H]1Cc1cccnc1"
  RESULT: "-0.53%"
- MOLECULE: "O=C(NC1CCN(c2ncccn2)CC1)c1cccc(-n2ccnc2)c1"
  RESULT: "-1.17%"
- MOLECULE: "COCC1(Nc2nc(C)nc3c2cnn3C)CCCC1"
  RESULT: "37.4%"
- MOLECULE: "CC(C)c1cc(NC(=O)CN2CCC(C(N)=O)CC2)on1"
  RESULT: "-6.37%"
- MOLECULE: "CCCC(NC(=O)c1cscc1C)c1nnn[nH]1 (configuration not stated)"
  RESULT: "19.5%"
- MOLECULE: "Cc1cc(C(=O)N2CCC(NC(=O)c3cccnc3)CC2)c(C)o1"
  RESULT: "-2.44%"
- MOLECULE: "Cc1nc(CN2CCC(N(C)Cc3noc(C(C)C)n3)C2)cs1 (configuration not stated)"
  RESULT: "-14.1%"
- MOLECULE: "O=S(=O)(NCC1(O)CCOCC1)c1ccccc1Br"
  RESULT: "-5.93%"
- MOLECULE: "CC(C)n1cc(CN(C)C[C@@H]2CCCN3CCCC[C@H]23)cn1"
  RESULT: "0.276%"
- MOLECULE: "c1ccc(N2CCC3(COCCN(c4ncccn4)C3)C2)nc1 (configuration not stated)"
  RESULT: "2.78%"

---

Items are presented alongside their recorded cytotoxicity at 10 µM.
# TEST NAME: Toxicity liver stage against HepG2, at 10uM
# Assay type: cell-based
# Design: test concentration 10 uM, cell line HepG2-A16-CD81EGFP
# CONDITION LABEL: human, HepG2-A16-CD81EGFP cells; read-out: INHIBITION

- COMPOUND: "CS(=O)(=O)NC[C@H]1Cn2c(-c3ccc(F)cc3)cnc2CO1"
  cytotoxicity at 10 µM, %: -7.47
- COMPOUND: "CN(C)S(=O)(=O)N1CCC(c2c(C(N)=O)sc3ccccc23)C1 (stereo unspecified)"
  cytotoxicity at 10 µM, %: 4.83
- COMPOUND: "Cc1nccc(NCc2cncc3c2CCN(CC2CCOC2)C3)n1 (stereo unspecified)"
  cytotoxicity at 10 µM, %: -41.5
- COMPOUND: "Cn1cc(N2CCCC(Nc3ccc4c(c3)CCCO4)C2=O)cn1 (stereo unspecified)"
  cytotoxicity at 10 µM, %: -6.79
- COMPOUND: "CN(Cc1cccnc1)C1CC2(CCN(c3ncc(F)cn3)CC2)C1"
  cytotoxicity at 10 µM, %: 18
- COMPOUND: "N#Cc1cccc(N2CCC(CO)(CCOc3ccccc3)CC2)n1"
  cytotoxicity at 10 µM, %: -42.8
